experimental-target: A*6801 (Homo sapiens, UniProt P04439, A269V/D185E/E176V/E277Q/E87N/F33Y/G231S/I121M/I166T/I218V/L180W/L300P/L318F/N151K/P208A/P217A/Q86R/R169H/T345S)
protocol: biochemical
Type: binding
No end group written: not given here.
Measured pIC50, listed per entry.
Formally, pIC50 is defined as -log10 of the concentration c, with c in mol/L.

Sample answers from the record:
GTTLEQQYNK [Peptide 78.0044]    5.41
LTARNVLVK [Peptide 9012.0213]    7.28
GVMCRHYKR [Peptide 88.0388]    7.03
KSFLKGTPK [Peptide 88.0344]    5.72
RLLKETELRK [Peptide 9012.0248]    4.89

I'd like to know its pIC50. The sequence in question is KSFFSRTWCK [Peptide 88.0170] 6.66

I'd like to know its pIC50. The sequence in question is DSNACAFLK [Peptide 1587.33] 7.17

I'd like to know its pIC50. The sequence in question is VSIEWRQRR [Peptide 9017.0089] 7.39

I'd like to know its pIC50. The sequence in question is ESKKEVESK [Peptide 9017.0083] 6.80

I'd like to know its pIC50. The sequence in question is QSNPYPEPK [Peptide 9017.0070] 6.06

====

experimental-target: A31 (A*3101) (Homo sapiens, UniProt P04439, A270S/D185E/E176V/E277Q/F33T/G231S/G80R/H175R/I121M/I218V/I322F/K168Q/L300P/L318F/M331R/P217A/Q94H/R138Q/T323A/T345S/T97I/V358M)
protocol: biochemical
Format: binding
No end group written: not given here.
property-name: log10(IC50) (log10 of the value in nM)
Field: value | Transform: log10 | Quantity: IC50 | Unit: nM

VTIYYGVPVWR [Peptide 1525.04]    0.60
ISYGRKKRR [Peptide 9017.0079]    1.56
WFFVETIVEK [Peptide 88.0171]    4.26

Pending sequence:
I'd like to know its log10(IC50). The sequence in question is TVRHKKLMFK [Peptide 1556.79] 3.71

====

experimental-target: A*2601 (Homo sapiens, UniProt P04439, A114D/A173T/A270S/D101N/D185E/E277Q/E87N/F33Y/G231S/I121R/I218V/K168Q/L180W/L300P/L318F/P208A/P217A/Q86R/Q94H/R138Q/S129P/T187R/T323A/T345S/V100A/V358M)
protocol: biochemical
Type: binding
No end group written: not given here.
property-name: IC50 (nM)
Kindly answer with a numeric value in nM, unit omitted.

Sample answers from the record:
RTDPVTLDVLY [Peptide 9012.0168]    2520
TSDYYIVTY [Peptide 1549.48]    4110
ETDLDMLRHLY [Peptide 9012.0172]    4.4
TIEKLTNTGLY [Peptide 1589.45]    12

I'd like to know its IC50. The sequence in question is LTDKILDHY [Peptide 1593.16] 804

I'd like to know its IC50. The sequence in question is FTSMPNPEGRY [Peptide 9012.0174] 2.8

I'd like to know its IC50. The sequence in question is MTETLNNTEY [Peptide 1593.15] 1620

I'd like to know its IC50. The sequence in question is DSVSSTCRY [Peptide 86.0156] 12

I'd like to know its IC50. The sequence in question is LQDKILDHY [Peptide 1580.27] 7410

I'd like to know its IC50. The sequence in question is VFADLRIVY [Peptide 1549.09] 1800
